- System: SK-OV-3
- test: Cytotoxicity against human SKOV3 cells by sulforhodamine B assay
- Format: functional, cell-based
observable: IC50

[Q] Report IC50 for COc1cc([C@@H]2c3cc4c(cc3[C@@H](O[C@@H]3O[C@@H]5CO[C@@H](C)O[C@H]5[C@H](O)[C@H]3O)[C@H]3COC(=O)[C@H]23)OCO4)cc(OC)c1O [ETOPOSIDE]
[A] 1.31 µM

[Q] Report IC50 for `COc1cc(C[C@H](CO)Oc2ccc(CCCO)cc2OC)ccc1O`
[A] > 10 µM

[Q] Report IC50 for `COc1cc([C@H](O)[C@H](CO)Oc2ccc(CCCO)cc2OC)ccc1O`
[A] > 10 µM

[Q] Report IC50 for `COc1ccc([C@H]2O[C@H](c3ccc(OC)c(OC)c3)[C@@H](C)[C@H]2C)cc1OC`
[A] > 10 µM

[Q] Report IC50 for `COc1cc([C@@H]2O[C@@H](c3cc(OC)c(O)c(OC)c3)[C@H](CO[C@@H]3O[C@H](CO)[C@@H](O)[C@H](O)[C@H]3O)[C@H]2CO)cc(OC)c1O`
[A] > 10 µM

[Q] Report IC50 for `COc1ccc([C@H]2O[C@H](c3cc(OC)c(OC)c(OC)c3)[C@@H](C)[C@@H]2C)cc1OC`
[A] > 10 µM

[Q] Report IC50 for `C/C=C/c1cc(OC)c(O[C@H](C)[C@H](O)c2ccc(OC)c(OC)c2)c(OC)c1`
[A] > 10 µM

[Q] Report IC50 for `COc1ccc([C@H]2O[C@@H](c3ccc(OC)c(OC)c3)[C@H](C)[C@H]2C)cc1OC`
[A] > 10 µM

[Q] Report IC50 for `COc1ccc(C[C@@H](CO)Oc2ccc(CCCO)cc2OC)cc1OC`
[A] > 10 µM

[Q] Report IC50 for `COc1ccc([C@H]2O[C@H](c3cc(OC)c(OC)c(OC)c3)[C@@H](C)[C@H]2C)cc1OC`
[A] 9.44 µM

[Q] Report IC50 for `C/C=C\c1ccc(O[C@H](C)[C@H](OC(C)=O)c2ccc(OC)c(OC)c2)c(OC)c1`
[A] > 10 µM

[Q] Report IC50 for `C/C=C/c1cc(OC)c(O[C@H](C)[C@H](O)c2cc(OC)c(OC)c(OC)c2)c(OC)c1`
[A] > 10 µM

[Q] Report IC50 for `COc1cc([C@@H](O)[C@@H](CO)Oc2ccc(CCCO)cc2OC)ccc1O`
[A] > 10 µM

----------
- test: Cytotoxicity against LPS-stimulated mouse BV2 cells assessed as cell viability after 24 hrs by MTT assay relative to control
- Assay type: cell-based, BV-2
- test-settings: read-out: Activity
observable: viability at 24 h
Record the result as a number with its unit.

[Q] Report viability at 24 h for `COc1ccc([C@H]2O[C@@H](c3ccc(OC)c(OC)c3)[C@H](C)[C@H]2C)cc1OC`
[A] 104%

[Q] Report viability at 24 h for `COc1cc([C@@H](O)[C@@H](CO)Oc2ccc(CCCO)cc2OC)ccc1O`
[A] 97.5%

[Q] Report viability at 24 h for `C/C=C/c1cc(OC)c(O[C@H](C)[C@H](O)c2cc(OC)c(OC)c(OC)c2)c(OC)c1`
[A] 101%

[Q] Report viability at 24 h for `CNC(=N)NCCC[C@H](N)C(=O)O`
[A] 98.7%

[Q] Report viability at 24 h for `COc1ccc([C@H]2O[C@H](c3cc(OC)c(OC)c(OC)c3)[C@@H](C)[C@@H]2C)cc1OC`
[A] 87.3%
